Test system: T-47D breast
methodDescription: NCI-60 one-dose screen, 48 h
runParameters: 10 µM unless noted
Compounds without any hit were thinned out: in the full panel of roughly 83,000, 20% have a hit. The source made the active and inactive calls. The calls were made as follows: active = growth percent below 10; inactive = the rest.
Labels: 1 (yes) = active, 0 (no) = inactive

1) COc1cc([C@@H]2c3cc4c(cc3[C@H](OC3OC5COC(c6ccccc6)OC5C(O)C3O)[C@H]3COC(=O)[C@H]23)OCO4)cc(OC)c1OC (some centres undefined): 0 (no)
2) CCCCCCCCCCCC[n+]1ccc2ccccc2c1: 1 (yes)
3) CN=C(N)N/N=C(\C)c1ccc2c(c1)Cc1ccccc1-2: 1 (yes)
4) Cc1cc(C)c(C#N)c(Sc2nc(C)c([N+](=O)[O-])c(C)c2C#N)n1: 0 (no)
5) Cc1ccc(N2C(=O)C=CC2=O)cc1: 0 (no)
6) Cc1onc(-c2ccccc2)c1C(=O)N/N=C/c1cc(Cl)cc(Cl)c1O: 0 (no)
7) CC(/C=N/NC(N)=S)Cc1ccc(C(C)C)cc1 (centres undefined): 0 (no)
8) CN(C)CCSC1=Nc2ccc(Cl)cc2C(c2ccccc2Cl)N(C)C1 (centres undefined): 0 (no)
9) NC(=S)N/N=C\c1nccc2c(C(F)(F)F)cccc12: 0 (no)
10) O=C1CSC(=S)N1Cc1cccnc1: 0 (no)
11) CCCCCCCCCCCCCCCCSC(=NCC)NCC: 1 (yes)
12) C/C=C/c1cc2c(c(=O)o1)C(=O)[C@@H](O)[C@H](C)O2: 0 (no)
13) CCC(=O)c1cc([N+](=O)[O-])c(Br)s1: 1 (yes)
14) Cc1cc(C)c([I+]c2c(C)cc(C)cc2C)c(C)c1: 1 (yes)
15) CCOC(=O)C1(C)CCCC1N (centres undefined): 0 (no)
16) CCCCCCCCCCCC[N+]1(CCCCCCCCCCCC)CCCC(C)C1 (centres undefined): 1 (yes)
17) NC(=Nc1nc(-c2ccccn2)cc2ccccc12)c1ccccn1: 0 (no)
18) Cc1ccc2c(c1)sc(-c1ccc(N(C)C)cc1)[n+]2C: 1 (yes)
19) Cc1cccc2c(N)c3ccccc3nc12: 1 (yes)
20) CC(C)=C1C=C2CC[C@@H]3[C@](C)(CCC[C@@]3(C)C(=O)O)[C@H]2CC1: 0 (no)
21) O=[N+]([O-])c1ccc(N2CCN(Cc3ccccc3)CC2)c2c1no[n+]2[O-]: 0 (no)
22) CC(CSc1n[nH]c(=S)s1)c1ccccc1 (centres undefined): 0 (no)
23) S=C(SSC(=S)N1CCOCC1)N1CCOCC1: 0 (no)
24) CCOC(=O)c1[nH]c(C#N)c(C(=O)OCC)c1C: 0 (no)
